Measured pull-down binding Z-score values are reported for all entries that follow.
Test system: G-clamp-N3 (biotin conjugate)
Assay explanation: pull-down binding Z-score (relative to library population); higher = stronger binding
Protocol conditions: RNA library: Library-1 (pre-miRNA loops + repeats)
Measurement type: pull-down binding Z-score

- CGGGAACCUGCCUCCCG [hsa-mir-596]: -0.566
- GUGUCGCCCCACGAGGGGGACUGU [hsa-mir-4322]: -0.152
- CAGCCCGUGGUGGGG [hsa-mir-3619]: 0.788
- GAAGAAGAAGAAGAAGAAGAAGAAGAAGAAGAAGAAGAAGAAGAAGAA [r(GAA)16]: -1.35
- CAUGUAUGUGUAUAUACAUAUAUAUG [hsa-mir-297]: 1.71
- GCGCGGGAAAGUUCGGGAACGCGCG [hsa-mir-4479]: 0.488
- GGGGGCAGGCUGCCACCUCCUG [hsa-mir-8089]: -0.161
- UUUGUACGGCACUGUGGCCACGUCCAAA [hsa-mir-497]: -0.884
- GGGAUGAGCCCUGGCUCUGUUUCCUAG [hsa-mir-378h]: -0.127
- UGCUCCUUGAACAGGAGGAGCA [hsa-mir-4708]: 1.09
- GUUGUUUUUAGAUAACUAAAUCGACAAC [hsa-mir-7-1]: 0.109
- AGAAGCCCAGGUUCUGAAUCCCCU [hsa-mir-6734]: -1.05
- UGUUUUUGCCAUUAAAAAUAAUGGCAUUAAAAGUAAUGGCAAAAACG [hsa-mir-548al]: -0.871
- UUGGCCUUUAUUUUCAAUGGCAAG [hsa-mir-548b]: -0.0843
- GGGGUAGAAGCCACCCG [hsa-mir-4466]: 0.458
- AUCGGUCGAGAGCGUCCUGGCUGAU [hsa-mir-3178]: 0.173
- UUUGCCUGUAAAAGUAAUGGCAAA [hsa-mir-548d-1]: -0.646
- UGAAUAUGUAAUAUAAGUGUAUUG [hsa-mir-450b]: 0.397
- CUUCUUACUGCACCAGUGAAG [hsa-mir-5683]: -1.53
- CUGAUUGUCAUAUGUCGUUUGUGGGAUCCG [hsa-mir-340]: -0.698
- CUGUAUGUCCUAACAGUGCUUGUAG [hsa-mir-4794]: -0.4
- CGUACGCUUUAUCUGUGACGUAUG [hsa-mir-411]: 0.625
- GUGAUUGUCUUCCUCACUCAAUCAG [hsa-mir-4704]: -1.11
